Attribute: inhibition
- TARGET_OF_ASSAY: Adenosine receptor A3 (Homo sapiens)
- TEST_NAME: Displacement of [125I]N6-(4-amino-3-iodobenzyl)adenosine-50-N-methyluronamide from human recombinant A3AR expressed in CHO cells at 10 uM
- Assay type: cell-based
ASSAY_ENDPOINT: inhibition

| STRUCTURE_AS_SMILES | ASSAY_ENDPOINT | RESULT |
| --- | --- | --- |
| Nc1ncnc2c1ncn2[C@@H]1OC[C@@](O)(CO)[C@H]1O | inhibition | 10% |
| OC[C@@]1(O)CO[C@@H](n2cnc3c(NCc4cccc(Cl)c4)ncnc32)[C@@H]1O | inhibition | 43% |
| CNC(=O)OC[C@@]1(O)CO[C@@H](n2cnc3c(N)ncnc32)[C@@H]1O | inhibition | 26% |
| OC[C@]1(O)CO[C@@H](n2cnc3c(NCc4cccc(Cl)c4)ncnc32)[C@@H]1O | inhibition | 44% |
| Nc1ncnc2c1ncn2[C@@H]1OC[C@H](CO)[C@H]1O | inhibition | 32% |

====

- TARGET_OF_ASSAY: UniProtKB P0DMS8
- Sequence (P0DMS8 whole entry): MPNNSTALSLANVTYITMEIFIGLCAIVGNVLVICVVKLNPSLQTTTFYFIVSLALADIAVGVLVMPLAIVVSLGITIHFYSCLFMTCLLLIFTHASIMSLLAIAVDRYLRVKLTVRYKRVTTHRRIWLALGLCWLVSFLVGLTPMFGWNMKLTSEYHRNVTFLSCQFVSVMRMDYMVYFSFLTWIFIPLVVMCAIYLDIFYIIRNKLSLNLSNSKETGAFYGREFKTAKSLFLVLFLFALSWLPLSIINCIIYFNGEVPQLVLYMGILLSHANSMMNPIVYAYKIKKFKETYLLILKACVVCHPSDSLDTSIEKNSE
- TEST_NAME: Displacement of [125I]N6-(4-amino-3-iodobenzyl)adenosine-50-N-methyluronamide from human recombinant A3AR expressed in CHO cells
Attribute: Ki

| STRUCTURE_AS_SMILES | TARGET_OF_ASSAY | Ki [µM] |
| --- | --- | --- |
| COc1ccc(Cl)cc1CNc1ncnc2c1ncn2[C@@H]1OC[C@](O)(CO)[C@H]1O | UniProtKB P0DMS8 | 0.978 |
| COc1ccc(Cl)cc1CNc1ncnc2c1ncn2[C@@H]1OC[C@@](O)(CO)[C@H]1O | UniProtKB P0DMS8 | 3.07 |

====

- TARGET_OF_ASSAY: UniProt P0DMS8
- Sequence (whole entry): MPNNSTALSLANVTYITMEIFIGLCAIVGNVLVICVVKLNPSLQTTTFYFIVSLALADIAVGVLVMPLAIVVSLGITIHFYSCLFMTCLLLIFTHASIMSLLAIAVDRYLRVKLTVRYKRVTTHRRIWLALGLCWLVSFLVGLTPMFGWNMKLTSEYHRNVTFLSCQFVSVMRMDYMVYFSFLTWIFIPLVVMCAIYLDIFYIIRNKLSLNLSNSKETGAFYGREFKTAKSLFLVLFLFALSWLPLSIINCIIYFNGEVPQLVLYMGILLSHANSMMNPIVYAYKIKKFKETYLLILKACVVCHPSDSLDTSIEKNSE
- TEST_NAME: Displacement of [125I]N6-(4-amino-3-iodobenzyl)adenosine-50-N-methyluronamide from human recombinant A3AR expressed in CHO cells at 10 uM
- Format: cell-based
ASSAY_ENDPOINT: inhibition

| STRUCTURE_AS_SMILES | ASSAY_ENDPOINT | RESULT |
| --- | --- | --- |
| Nc1ncnc2c1ncn2[C@@H]1OC[C@](O)(CO)[C@H]1O | inhibition | 35% |
| CCNC(=O)[C@@H]1CO[C@@H](n2cnc3c(N)ncnc32)[C@@H]1O | inhibition | 10% |
| CCNC(=O)OC[C@]1(O)CO[C@@H](n2cnc3c(N)ncnc32)[C@@H]1O | inhibition | 6% |
| CCNC(=O)OC[C@@H]1CO[C@@H](n2cnc3c(N)ncnc32)[C@@H]1O | inhibition | 8% |
| Nc1ncnc2c1ncn2[C@@H]1OC[C@@H](CO)[C@H]1O | inhibition | 7% |
| Nc1ncnc2c1ncn2[C@H]1C[C@H](CO)CO1 | inhibition | 7% |
| Nc1c2ncn([C@@H]3OC[C@@](O)(CO)[C@H]3O)c2nc[n+]1Cc1cccc(Cl)c1 | inhibition | 3% |
| OC[C@@]1(O)CO[C@@H](n2cnc3c(NCc4cccc(I)c4)ncnc32)[C@@H]1O | inhibition | 48% |
| Nc1ncnc2c1ncn2[C@H]1C[C@@H](CO)CO1 | inhibition | 31% |
| OC[C@]1(O)CO[C@@H](n2cnc3c(NCc4cccc(I)c4)ncnc32)[C@@H]1O | inhibition | 45% |
